Reported values of Kd for individual entries
Target: T1, hK1 (human tissue kallikrein 1), recombinant (human, UniProt P06870 25-262)
T1 construct: Expressed in P. pastoris from KLK1 cDNA and purified; enzymatically active; also called KLK1; Recombinant (Pichia) Kallikrein
Assay: SPR
Please state the figure in nM; there is no need to write the unit.

M0138-B06 (Fab, V domains shown) VH: EVQLLESGGGLVQPGGSLRLSCAASGFTFSPYTMSWVRQAPGKGLEWVSGIYPSGGETWYADSVKGRFTISRDNSKNTLYLQMNSLRAEDTAVYYCAKNINLRYDILTGYFDFWGQGTMVTVSS VL: DIQMTQSPSSVSASVGDRVTITCRASQGISSWLAWYQQKPGKAPKLLIYAASSLQSGVPSRFSGSGSGTDFTLTISSLQPEDFATYYCQQANSFPLTFGGGTKVEIKR :: 12.5

# context switch: different binder, same Kd
QUERY: Please indicate Kd recorded for M0104-H12 (Fab, V domains shown) VH: EVQLLESGGGLVQPGGSLRLSCAASGFTFSYYQMSWVRQAPGKGLEWVSRIGPSGGLTSYADSVKGRFTISRDNSKNTLYLQMNSLRAEDTAVYYCARVGVWYGMDVWGQGTLVTVSS VL: AQSELTQPPSASGSPGQSVTISCTGTSSDVGAYNYVSWYQQHPGKAPKLIIYEVNKRPSGVPDRFSASKSGNTASLTVSGLQAEDEADYYCNSYAGSNSLIFGGGTKLTVLG
RESULT: 2.43

Attribution: patent US7329737
